Value source: paper PMC11873125

tested on: TRE-FLAG-LMNB1 MEF; test: Primary HCS assay, cell numbers; type: cell-based, mouse; settings: 48 h
reported-metric: Cellular toxicity (in words)

# Cellular toxicity (in words) (molecule: `Oc1c2ccccc2c2c3c(cccc13)N=N2` ) is no or low toxicity

Measured Cellular toxicity (in words) of `Oc1ccc(-c2nc(-c3ccncc3)c(-c3ccc(F)cc3)[nH]2)cc1` : no or low toxicity
